# target.under.test: Recombinant human HDAC3/SMRT heterodimer (Homo sapiens, UniProt O15379)
# Construct: FLAG (C); made in house
# Sequence (O15379 whole entry): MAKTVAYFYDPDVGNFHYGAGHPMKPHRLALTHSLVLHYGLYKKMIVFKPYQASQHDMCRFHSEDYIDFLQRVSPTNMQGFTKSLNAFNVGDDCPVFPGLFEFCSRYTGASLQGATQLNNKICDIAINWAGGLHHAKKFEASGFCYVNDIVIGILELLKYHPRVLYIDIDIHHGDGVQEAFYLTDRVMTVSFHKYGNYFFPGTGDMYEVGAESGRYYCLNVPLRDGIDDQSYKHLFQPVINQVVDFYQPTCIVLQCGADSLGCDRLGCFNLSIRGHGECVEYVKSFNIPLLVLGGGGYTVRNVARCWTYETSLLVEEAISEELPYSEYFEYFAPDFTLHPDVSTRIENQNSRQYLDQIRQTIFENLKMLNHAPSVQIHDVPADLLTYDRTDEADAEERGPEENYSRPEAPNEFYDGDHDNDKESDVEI
# Sequence (Q9Y618 1-899 partner limits assumed): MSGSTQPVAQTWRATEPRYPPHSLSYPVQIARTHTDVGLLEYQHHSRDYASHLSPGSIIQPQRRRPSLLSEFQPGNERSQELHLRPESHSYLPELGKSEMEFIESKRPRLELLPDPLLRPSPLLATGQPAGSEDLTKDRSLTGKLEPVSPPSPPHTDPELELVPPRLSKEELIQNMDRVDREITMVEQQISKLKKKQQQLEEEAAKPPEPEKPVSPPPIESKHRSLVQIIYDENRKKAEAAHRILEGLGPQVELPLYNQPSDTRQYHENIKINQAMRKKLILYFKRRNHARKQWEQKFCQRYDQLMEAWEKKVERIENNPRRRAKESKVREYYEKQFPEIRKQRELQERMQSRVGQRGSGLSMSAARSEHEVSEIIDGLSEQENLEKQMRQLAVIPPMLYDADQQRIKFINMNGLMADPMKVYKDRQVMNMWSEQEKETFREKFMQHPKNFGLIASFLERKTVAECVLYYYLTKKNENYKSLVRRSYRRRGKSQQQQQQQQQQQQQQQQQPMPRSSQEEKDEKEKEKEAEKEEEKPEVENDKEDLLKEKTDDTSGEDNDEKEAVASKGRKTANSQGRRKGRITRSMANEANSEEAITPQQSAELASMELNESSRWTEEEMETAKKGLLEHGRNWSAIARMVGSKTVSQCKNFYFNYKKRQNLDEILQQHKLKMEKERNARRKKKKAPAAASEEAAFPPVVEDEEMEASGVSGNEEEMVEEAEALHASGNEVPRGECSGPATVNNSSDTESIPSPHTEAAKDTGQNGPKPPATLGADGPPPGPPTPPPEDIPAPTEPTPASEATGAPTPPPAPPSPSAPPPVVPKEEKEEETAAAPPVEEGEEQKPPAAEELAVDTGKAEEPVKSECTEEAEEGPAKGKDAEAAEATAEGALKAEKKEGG
# assay.remarks: Human HDAC enzyme inhibitor Fluor-de-Lys assay, HDAC3/SMRT
# Assay type: biochemical
# measurement.setup: recombinant human HDAC3/SMRT, Fluor-de-Lys assay
As shown below, each of these molecules has a reported pIC50 value.
Just so you know, pIC50 here is -log10 of the concentration in molar units; reply with that number alone.

// worked examples, pIC50 included
INSERT INTO measurements (molecule, reported_endpoint, measured) VALUES
  ('CCC(=O)CCCCC[C@H](NC(=O)C1CC12CCN(CC)CC2)c1nc(-c2ccc(F)cc2)[nH]c1-c1cn[nH]c1 (stereo partly shown)', 'pIC50', 7.70),
  ('CCC(=O)CCCCC[C@H](NC(=O)C1=NOC2(CCN(C(=O)OC)CC2)C1)c1ncc(-c2ccccc2)[nH]1', 'pIC50', 7.58),
  ('CCC(=O)CCCCC[C@H](NC(=O)[C@H]1CC12CCN(CC1CC1)CC2)c1ncc(-c2ccc3nc(C)ccc3c2)[nH]1', 'pIC50', 10.30);

Shifting focus to the molecule that follows.
// sample `CCC(=O)CCCCC[C@H](NC(=O)[C@H]1CC12CCN(C)CC2)c1ncc(-c2cc3ccncc3cc2OC)o1` , its pIC50 was 9.15

###

Property: IC50; scope: individual molecules
# target.under.test: Recombinant human HDAC3/SMRT heterodimer (Homo sapiens)
# Construct: FLAG (C); made in house
# assay.remarks: Human HDAC enzyme inhibitor Fluor-de-Lys assay, HDAC3/SMRT
# Assay type: biochemical
Reply with just the number (in nM).

Some molecules with known IC50 results, for comparison:
INSERT INTO results (chemical_string, target_under_test, reported_endpoint, measured) VALUES
  ('CCC(=O)CCCCC[C@H](NC(=O)C1=NOC2(CCN(C(C)C)CC2)C1)c1ncc(-c2ccc3nc(C4CC4)ccc3c2)o1', 'Recombinant human HDAC3/SMRT heterodimer (Homo sapiens)', 'IC50', 6.41),
  ('CCC(=O)CCCCC[C@H](NC(=O)[C@H]1CC[C@]2(CC1)OC(=O)c1ncccc12)c1ncc(-c2ccc3nc(C4CC4)ccc3c2)o1', 'Recombinant human HDAC3/SMRT heterodimer (Homo sapiens)', 'IC50', 20.5);

Could you now look at the following molecule, please?
// IC50 lookup, molecule = `CCC(=O)CCCCC[C@H](NC(=O)C1CC2(CCN(C)CC2)C1)c1ncc(-c2ccc3nn(C)cc3c2)[nH]1` , result: 2.61

###

# target.under.test: Recombinant human HDAC1 (Homo sapiens, UniProt Q13547)
# Construct: FLAG (C); made in house
# Sequence (Q13547 whole entry): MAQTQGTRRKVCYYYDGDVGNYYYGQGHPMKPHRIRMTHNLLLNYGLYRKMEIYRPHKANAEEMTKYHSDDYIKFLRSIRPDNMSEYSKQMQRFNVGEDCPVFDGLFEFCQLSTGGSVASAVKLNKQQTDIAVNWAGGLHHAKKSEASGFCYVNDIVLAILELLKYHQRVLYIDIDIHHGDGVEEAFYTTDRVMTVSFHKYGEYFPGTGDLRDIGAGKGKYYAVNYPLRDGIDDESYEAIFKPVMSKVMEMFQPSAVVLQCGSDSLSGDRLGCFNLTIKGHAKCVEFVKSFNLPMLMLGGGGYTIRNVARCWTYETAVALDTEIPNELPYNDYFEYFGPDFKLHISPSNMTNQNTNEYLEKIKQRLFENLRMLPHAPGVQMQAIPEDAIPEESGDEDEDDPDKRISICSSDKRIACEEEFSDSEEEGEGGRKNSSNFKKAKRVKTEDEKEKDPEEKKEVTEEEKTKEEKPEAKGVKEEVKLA
# assay.remarks: Human HDAC enzyme inhibitor Fluor-de-Lys assay, HDAC1
# Type: biochemical
# measurement.setup: recombinant human HDAC1, Fluor-de-Lys assay
# reported pIC50; entries follow
Here pIC50 is given on a logarithmic scale as minus log10 of the concentration in mol/L.

Worked examples follow.
INSERT INTO assay_data (molecule, reported_endpoint, measured) VALUES
  ('CCC(=O)CCCCC[C@H](NC(=O)[C@H]1CC12CCN(C)CC2)c1ncc(-c2ccc(F)cc2)[nH]1 [Compound 280]', 'pIC50', 7.52),
  ('CCC(=O)CCCCC[C@H](NC(=O)[C@H]1CC12CCN(CC)CC2)c1ncc(-c2cnc3cc(C(F)(F)F)ccc3c2)[nH]1 [Compound 341]', 'pIC50', 9.38),
  ('CCC(=O)CCCCC[C@H](NC(=O)[C@H]1CC12CCN(CC)CC2)c1ncc(-c2ccc3nn(C4CC4)cc3c2)[nH]1 [Compound 238]', 'pIC50', 9.66);

Consider CCC(=O)CCCCC[C@H](NC(=O)C1=NOC2(CCN(CC3CC3)CC2)C1)c1ncc(-c2cc3ccc(C)nc3cc2OC)o1 [Compound 225] . Its measured pIC50 is 9.22

# molecule CCC(=O)CCCCCC(NC(=O)C1CCC2(CC1)OC(=O)c1cnccc12)c1nnc(-c2cc3ccccc3nc2OC)o1 (centres unmarked) [Compound 364] ; its pIC50 = 7.20

Value of pIC50 reported for the molecule CCCC(=O)CCCCC[C@H](N)c1ncc(-c2cc3ccc(C)nc3cc2OC)[nH]1 [Compound A30] is 7.22

So, CCC(=O)CCCCC[C@H](NC(=O)[C@H]1CC12CCN(C)CC2)c1ncc(-c2ccccc2F)[nH]1 [Compound 290] ? Its pIC50 was 7.81

Record CCC(=O)CCCCC[C@H](NC(=O)C1NC(=O)CC12CNC2)c1nnc(-c2cc3ccccc3nc2OC)o1 (some centres unmarked) [Compound 304] . Reported pIC50: 8.44

# pIC50 (molecule: CCC(=O)CCCCC[C@H](NC(=O)[C@H]1CC12CCN(CC1CC1)CC2)c1ncc(-c2cc3ccn(C)c(=O)c3cc2OC)o1 [Compound 229] ) is 10.05
